biological target: CLK4 (human) (UniProt Q9HAZ1); assay: radiometric filter-binding kinase assay, Kinase HotSpot; conditions: compound 0.5 µM; ATP 10 µM
Sequence (Q9HAZ1 whole entry, looked up): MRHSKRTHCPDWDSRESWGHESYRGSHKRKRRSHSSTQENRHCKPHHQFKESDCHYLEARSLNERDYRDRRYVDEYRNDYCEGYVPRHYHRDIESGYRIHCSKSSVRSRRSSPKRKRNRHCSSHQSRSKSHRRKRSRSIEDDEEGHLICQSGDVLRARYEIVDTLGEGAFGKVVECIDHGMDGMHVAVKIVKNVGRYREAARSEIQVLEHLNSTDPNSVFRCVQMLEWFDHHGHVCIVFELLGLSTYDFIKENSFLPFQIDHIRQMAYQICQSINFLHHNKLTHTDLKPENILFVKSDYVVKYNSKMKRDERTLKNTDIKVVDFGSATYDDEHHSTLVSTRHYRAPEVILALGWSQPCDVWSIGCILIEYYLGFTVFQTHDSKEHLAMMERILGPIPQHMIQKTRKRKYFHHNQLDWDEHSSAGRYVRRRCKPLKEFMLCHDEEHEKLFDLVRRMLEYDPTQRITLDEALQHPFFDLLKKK

[
  {
    "Input Smiles": "Cc1ccc(NC2=CC(=O)c3sc(C)nc3C2=O)cc1",
    "Target Desc": "CLK4 (human) (UniProt Q9HAZ1)",
    "residual activity, %": 99.1
  },
  {
    "Input Smiles": "CC#CC(=O)Nc1cc2c(Nc3ccc(F)c(Cl)c3)ncnc2cn1",
    "Target Desc": "CLK4 (human) (UniProt Q9HAZ1)",
    "residual activity, %": 90.4
  },
  {
    "Input Smiles": "O=C1Nc2ccc(Cl)cc2/C1=C/c1cc(Cl)c(O)c(Cl)c1",
    "Target Desc": "CLK4 (human) (UniProt Q9HAZ1)",
    "residual activity, %": 60.7
  },
  {
    "Input Smiles": "CCN(CC)C(=O)c1ccc(Nc2nc(OCC3CCCCC3)c3nc[nH]c3n2)cc1",
    "Target Desc": "CLK4 (human) (UniProt Q9HAZ1)",
    "residual activity, %": 44.2
  },
  {
    "Input Smiles": "O=C1NC(=O)c2c1c1c3ccccc3n3c1c1c2c2ccccc2n1C1CCC3O1",
    "Target Desc": "CLK4 (human) (UniProt Q9HAZ1)",
    "residual activity, %": 20.3
  },
  {
    "Input Smiles": "COc1cc2ncnc(Nc3cccc(Cl)c3)c2cc1OC",
    "Target Desc": "CLK4 (human) (UniProt Q9HAZ1)",
    "residual activity, %": 98.2
  },
  {
    "Input Smiles": "N#CC(C#N)=C(N)/C(C#N)=C/c1ccc(O)cc1",
    "Target Desc": "CLK4 (human) (UniProt Q9HAZ1)",
    "residual activity, %": 101
  },
  {
    "Input Smiles": "Cc1[nH]c(/C=C2\\C(=O)Nc3ccc(S(=O)(=O)N(C)c4cccc(Cl)c4)cc32)c(C)c1C(=O)N1CCN(C)CC1",
    "Target Desc": "CLK4 (human) (UniProt Q9HAZ1)",
    "residual activity, %": 34.3
  },
  {
    "Input Smiles": "Nc1ccc2ncnc(NCCc3ccc(Oc4ccccc4)cc3)c2c1",
    "Target Desc": "CLK4 (human) (UniProt Q9HAZ1)",
    "residual activity, %": 94.6
  },
  {
    "Input Smiles": "COc1ccc(COc2ccc(Cc3cnc(N)nc3N)cc2OC)cc1",
    "Target Desc": "CLK4 (human) (UniProt Q9HAZ1)",
    "residual activity, %": 86.5
  },
  {
    "Input Smiles": "O=C1NC(=O)C(c2cn(CCCn3ccnc3)c3ccccc23)=C1Nc1ccccc1",
    "Target Desc": "CLK4 (human) (UniProt Q9HAZ1)",
    "residual activity, %": 38.9
  }
]
